experiment: chemical genetic growth profiling, strain panel (AID 1159580);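 further: tested at 20 µM; growth read once vehicle control cultures reached saturation at 30 °C; 1 = growth at the plate median or of vehicle wells; lower values mean less growth of the strain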; conditions: S. cerevisiae deletion strains, growth OD, locus YKL085W, strain MDH1 (second series)
Hit rate of the full screen: of about 5,500 compounds, about 2,000 (36%) were called active. Inconclusive results (about 18%) are left out. No stated cut-off is given here; in the data, active means normalized growth mostly below about 0.91 (no sharp cut-off); inconclusive means no clear call, values can overlap the other calls; inactive means mostly above about 0.92. Some of the results follow.
Choose one outcome from this list and give only that: active, inactive

Q: How was C[N+]1(C)CCCC(OC(=O)C(O)(c2ccccc2)c2ccccc2)C1 (centres undefined) classified in this test?
Result: inactive

Q: Likewise for `CC(C)=CCC/C(C)=C/CO` ?
Result: inactive

Q: Likewise for `CC[C@H]1OC(=O)[C@H](C)[C@@H](O[C@H]2C[C@@](C)(OC)[C@@H](O)[C@H](C)O2)[C@H](C)[C@@H](O[C@@H]2O[C@H](C)C[C@H](N(C)C)[C@H]2O)[C@](C)(O)C[C@@H](C)/C(=N/OCOCCOC)[C@H](C)[C@@H](O)[C@]1(C)O` ?
Result: inactive

Q: Likewise for `O=C(O)CCC(=O)OC[C@@H](NC(=O)C(Cl)Cl)[C@H](O)c1ccc([N+](=O)[O-])cc1` ?
Result: inactive

Q: Likewise for `Cc1cc(O)c2c(c1)C(=O)c1cc(O)cc(O)c1C2=O` ?
Result: active

Q: Likewise for CC(C)c1cc2c(c(O)c1O)[C@@]1(C(=O)O)CCCC(C)(C)C1CC2 (some centres undefined) ?
Result: active

Q: Likewise for CC(NC(C)(C)C)C(=O)c1cccc(Cl)c1 (centres undefined) ?
Result: inactive

Q: Likewise for `CCCc1ncc(C[n+]2ccccc2C)c(N)n1` ?
Result: inactive

Q: Likewise for `CN1CCN(C2=Nc3cc(Cl)ccc3Nc3ccccc32)CC1` ?
Result: inactive

Q: Likewise for `COc1cc(O)c2c(c1)C(=O)c1cc(C)cc(O)c1C2=O` ?
Result: inactive

Q: Likewise for `O=C(O)CC[N+](=O)[O-]` ?
Result: inactive

Q: Likewise for `Cn1c(=O)c2c(ncn2CCCl)n(C)c1=O` ?
Result: inactive

Q: Likewise for `Cn1c(=O)c2c(ncn2C)n(C)c1=O` ?
Result: inactive

Q: Likewise for `Cn1c(=O)[nH]c2nc[nH]c2c1=O` ?
Result: inactive

---

assay: chemical genetic growth profiling, strain panel (AID 1159580);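 further: tested at 20 µM; growth read once vehicle control cultures reached saturation at 30 °C; 1 = growth at the plate median or of vehicle wells; lower values mean less growth of the strain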; conditions: S. cerevisiae deletion strains, growth OD, locus YNL183C, strain NPR1, active compounds read low
About 2,000 (36%) of roughly 5,500 compounds were called active. About 18% were inconclusive and are not listed. This is one part of the list.
experimental.readout: normalized growth

Q: // normalized growth lookup, key: `O=C(O)c1cc(=O)c2ccccc2[nH]1`
Result: 0.893 (inactive)

Q: Likewise for `CC(=O)c1ccc(Sc2ccccc2)c([N+](=O)[O-])c1` ?
Result: 0.798 (inactive)

Q: Likewise for `O=[N+]([O-])c1ccc(Sc2ccccc2)cc1O` ?
Result: 0.828 (inactive)

Q: Likewise for C[N+]1(C)CCCC(OC(=O)C(O)(c2ccccc2)c2ccccc2)C1 (stereo unspecified) ?
Result: 0.983 (inactive)

Q: Likewise for CC(=O)OC[C@@]1(O)C[C@@]23CCC4c5ccoc5CC[C@]4(C)C2CC[C@@H]1C3 (stereo partly specified) ?
Result: 0.877 (inactive)

Q: Likewise for C=C(C)C1Cc2c(ccc3c(=O)c4c(oc23)COc2cc(OC)c(OC)cc2-4)O1 (stereo unspecified) ?
Result: 0.988 (inactive)

Q: Likewise for `O=c1c(O)c(-c2ccccc2)oc2cc(O)ccc12` ?
Result: 0.98 (inactive)

Q: Likewise for `CC1=C(C(=O)O)N2C(=O)[C@@H](NC(=O)[C@@H](N)c3ccc(O)cc3)[C@H]2SC1` ?
Result: 0.929 (inactive)

Q: Likewise for NC(Cc1ccc(Cl)cc1)C(=O)O (stereo unspecified) ?
Result: 0.891 (inactive)

Q: Likewise for `Cn1ncc(-c2nc(-c3ccc(Cl)cc3)cs2)c1N` ?
Result: 0.892 (inactive)

Q: Likewise for `N[C@@H](C(=O)N[C@@H]1C(=O)N2C(C(=O)O)=C(Cl)CS[C@H]12)c1ccccc1` ?
Result: 0.932 (inactive)
